The values you see were collected from patent US20260306640A1.

assay_system: KAT2B (Homo sapiens, UniProt Q92831)
Sequence (Q92831 whole entry): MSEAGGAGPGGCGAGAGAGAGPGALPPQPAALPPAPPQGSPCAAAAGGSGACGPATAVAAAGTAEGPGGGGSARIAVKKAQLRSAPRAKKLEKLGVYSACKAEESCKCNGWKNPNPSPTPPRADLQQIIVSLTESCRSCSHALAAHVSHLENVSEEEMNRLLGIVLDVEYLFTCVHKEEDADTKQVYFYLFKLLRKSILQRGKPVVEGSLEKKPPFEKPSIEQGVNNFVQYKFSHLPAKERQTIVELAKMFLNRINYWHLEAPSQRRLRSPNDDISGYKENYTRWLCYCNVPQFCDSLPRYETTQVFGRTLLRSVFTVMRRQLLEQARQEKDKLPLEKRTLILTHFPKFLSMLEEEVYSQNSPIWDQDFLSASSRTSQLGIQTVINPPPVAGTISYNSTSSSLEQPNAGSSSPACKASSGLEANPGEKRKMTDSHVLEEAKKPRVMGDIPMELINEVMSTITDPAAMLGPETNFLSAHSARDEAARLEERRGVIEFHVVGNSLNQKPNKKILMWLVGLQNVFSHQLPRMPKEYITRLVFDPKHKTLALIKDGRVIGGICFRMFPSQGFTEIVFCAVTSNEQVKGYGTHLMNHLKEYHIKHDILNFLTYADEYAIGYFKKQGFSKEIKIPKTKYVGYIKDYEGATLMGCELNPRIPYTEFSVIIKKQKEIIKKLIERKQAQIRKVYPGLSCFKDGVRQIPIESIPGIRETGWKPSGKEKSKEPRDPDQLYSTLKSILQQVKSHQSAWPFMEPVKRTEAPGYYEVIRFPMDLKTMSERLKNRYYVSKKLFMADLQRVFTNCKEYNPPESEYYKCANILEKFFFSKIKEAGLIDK
experiment_notes: KAT2B degradation, Western Blot (Jess), NCI-H1048 cells
Format: cell-based
Design: degrader, Western blot (Jess)
experimental_setup: NCI-H1048 cells, KAT2B, 24 h, Western Blot, vs DMSO; read-out: KAT2B NCI-H1048 DC50
readout_name: DC50

Worked examples follow.
CN1C[C@H](Nc2cnn(C)c(=O)c2Br)C[C@H](c2ccc(C(=O)N3CCC(c4ccc5c(C6CCC(=O)NC6=O)cncc5c4)CC3)cc2)C1 (stereo partly drawn) [Compound 330]: > 30 nM
CN1C[C@H](Nc2cnn(C)c(=O)c2Cl)C[C@H](c2ccc(C(=O)N3CCC4(CC3)CCN(c3ccc(C(=O)NC5CCC(=O)NC5=O)nc3)CC4)cc2)C1 (stereo partly drawn) [Compound 403]: 1 to 30 nM
CN1C[C@H](Nc2cnn(C)c(=O)c2Cl)C[C@H](c2ccc(CN3CCN(c4cncc(C5CCC(=O)NC5=O)c4)CC3)cc2)C1 (stereo partly drawn) [Compound 344]: > 30 nM

Query: Return DC50 for the following compound: CN1C[C@H](Nc2cnn(C)c(=O)c2Cl)C[C@H](c2ccc(C(=O)N3CCC(C#Cc4ccc(C5CCC(=O)NC5=O)cc4)CC3)cc2)C1 (stereo partly drawn) [Compound 332]
Result: > 30 nM

Query: Identify the reported DC50 for the following entry. COc1cc(C2CCC3(CC2)CCN(C(=O)c2ccc([C@H]4C[C@@H](Nc5cnn(C)c(=O)c5Cl)CN(C)C4)cc2)CC3)ccc1C1CCC(=O)NC1=O (stereo partly drawn) [Compound 319]
Result: 1 to 30 nM

Query: Tell me its DC50 given CN1C[C@H](Nc2cnn(C)c(=O)c2Cl)C[C@H](c2ccc(CN3CCC(c4ccc5c(C6CCC(=O)NC6=O)cncc5c4)C(F)(F)C3)cc2)C1 (stereo partly drawn) [Compound 389] as the entry.
Result: < 1 nM

* * *

assay_system: UniProt Q92830
experiment_notes: KAT2A degradation, Western Blot (Jess), NCI-H1048 cells
Format: cell-based
Parameters: degrader, Western blot (Jess)
experimental_setup: NCI-H1048 cells, KAT2A, 24 h, Western Blot, vs DMSO; read-out: KAT2A NCI-H1048 DC50
readout_name: DC50

CN1C[C@H](Nc2cnn(C)c(=O)c2Cl)C[C@H](c2ccc(CN3CCN(c4ccnc(C5CCC(=O)NC5=O)c4)CC3)cc2)C1 (stereo partly drawn) [Compound 351]: 1 to 30 nM
CN1C[C@H](Nc2cnn(C)c(=O)c2Cl)C[C@H](c2ccc(CN3CC(c4ccc5c(c4)C(=O)N(C4CCC(=O)NC4=O)C5=O)C3)cc2)C1 (stereo partly drawn) [Compound 199]: > 30 nM
Cc1cc(N2CCC3(CCN(C(=O)c4ccc([C@H]5C[C@@H](Nc6cnn(C)c(=O)c6Cl)CN(C)C5)cc4)CC3)CC2)ccc1C1CCC(=O)NC1=O (stereo partly drawn) [Compound 223]: < 1 nM
Cc1cc(N2CCC3(CCN(C(=O)c4ccc([C@H]5C[C@@H](Nc6cnn(C)c(=O)c6Cl)CN(C)C5)cc4)CC3)CC2)ccc1N1CCC(=O)NC1=O [Compound 396]: < 1 nM
CN1C[C@H](Nc2cnn(C)c(=O)c2Br)C[C@H](c2ccc(C(=O)N3CCC4(CC3)CCN(c3ccc5c(c3)C(=O)N(C3CCC(=O)NC3=O)C5=O)CC4)cc2)C1 (stereo partly drawn) [Compound 300]: < 1 nM

Consider now this further compound.
Query: Tell us which DC50 value is on record for Cc1c(N[C@@H]2C[C@H](c3ccc(C(=O)N4CCC5(CC4)CCN(c4cc(C(F)(F)F)c(C6CCC(=O)NC6=O)cn4)CC5)cc3)CN(C)C2)cnn(C)c1=O (stereo partly drawn) [Compound 230]
Result: 1 to 30 nM

* * *

DC50 values for the molecules below.
assay_system: UniProt Q92830
experiment_notes: KAT2A degradation, Western Blot (Jess), MOLM-13 cells
Format: cell-based
Set-up: degrader, Western blot
experimental_setup: MOLM-13 cells, KAT2A, 24 h, Western Blot, vs DMSO; read-out: KAT2A MOLM-13 DC50

Examples with answers:
CN1C[C@H](Nc2cnn(C)c(=O)c2Br)C[C@H](c2ccc(CN3CC(Oc4ccc(C5CCC(=O)NC5=O)cc4)C3)cc2)C1 (some centres unmarked): < 1 nM
CN1C[C@H](Nc2cnn(C)c(=O)c2Br)C[C@H](c2ccc(C(=O)N3CCC(c4ccc(C5CCC(=O)NC5=O)cc4)CC3)cc2)C1 (some centres unmarked): 1 to 30 nM
CN1C[C@H](Nc2cnn(C)c(=O)c2Br)C[C@H](c2ccc(C(=O)N3CCC(Oc4ccc(C5CCC(=O)NC5=O)cc4F)CC3)cc2)C1 (some centres unmarked): < 1 nM

Query: Look up and report measured DC50 (UniProt Q92830) for the following molecule: CN1C[C@H](Nc2cnn(C)c(=O)c2Br)C[C@H](c2ccc(C(=O)N3CC(Oc4cccc(C5CCC(=O)NC5=O)c4)C3)cc2)C1 (some centres unmarked)
Result: < 1 nM

Query: Enter DC50 (test system UniProt Q92830) for CN1C[C@H](Nc2cnn(C)c(=O)c2Br)C[C@H](c2ccc(COc3cccc4c3C(=O)N(C3CCC(=O)NC3=O)C4=O)cc2)C1 (some centres unmarked)
Result: 1 to 30 nM

* * *

Entries and their DC50 values follow.
assay_system: KAT2A (Homo sapiens)
Sequence (Q92830 whole entry): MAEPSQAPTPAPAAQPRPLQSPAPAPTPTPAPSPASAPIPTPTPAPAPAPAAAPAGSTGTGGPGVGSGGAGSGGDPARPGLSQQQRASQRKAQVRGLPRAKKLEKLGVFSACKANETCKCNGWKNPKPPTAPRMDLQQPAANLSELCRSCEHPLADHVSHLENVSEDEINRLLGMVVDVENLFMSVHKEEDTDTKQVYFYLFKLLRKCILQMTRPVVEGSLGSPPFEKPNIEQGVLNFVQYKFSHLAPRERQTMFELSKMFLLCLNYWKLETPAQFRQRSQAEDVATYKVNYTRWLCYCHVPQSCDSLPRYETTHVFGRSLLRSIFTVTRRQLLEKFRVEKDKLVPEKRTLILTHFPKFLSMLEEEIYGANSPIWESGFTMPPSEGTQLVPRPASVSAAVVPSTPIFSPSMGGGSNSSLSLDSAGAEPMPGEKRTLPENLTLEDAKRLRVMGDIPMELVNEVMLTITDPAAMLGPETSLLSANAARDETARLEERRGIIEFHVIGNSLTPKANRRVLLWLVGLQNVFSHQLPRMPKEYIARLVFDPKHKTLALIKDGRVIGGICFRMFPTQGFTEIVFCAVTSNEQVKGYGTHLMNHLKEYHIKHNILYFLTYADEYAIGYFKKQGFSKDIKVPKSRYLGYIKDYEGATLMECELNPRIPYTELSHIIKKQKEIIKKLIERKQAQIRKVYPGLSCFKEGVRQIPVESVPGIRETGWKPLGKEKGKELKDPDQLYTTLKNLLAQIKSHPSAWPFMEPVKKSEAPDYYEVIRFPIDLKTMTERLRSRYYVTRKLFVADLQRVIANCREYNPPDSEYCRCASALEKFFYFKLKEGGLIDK
experiment_notes: KAT2A degradation, Western Blot (Jess), MOLM-13 cells
Type: cell-based
Design: degrader, Western blot
experimental_setup: MOLM-13 cells, KAT2A, 24 h, Western Blot, vs DMSO; read-out: KAT2A MOLM-13 DC50

CN1C[C@H](Nc2cnn(C)c(=O)c2Br)C[C@H](c2ccc(CN3CCC(c4ccc(C5CCC(=O)NC5=O)cc4)CC3)cc2)C1 (stereo partly drawn) [Compound 87]: 1 to 30 nM

Query: Given CN1C[C@H](Nc2cnn(C)c(=O)c2Br)C[C@H](c2ccc(C(=O)N3CCC4(CC3)CN(c3ccc(C5CCC(=O)NC5=O)cc3)C4)cc2)C1 (stereo partly drawn) [Compound 126] , respond with its DC50.
Result: < 1 nM

Query: Please indicate DC50 recorded for CN1C[C@H](Nc2cnn(C)c(=O)c2Br)C[C@H](c2ccc(CN3CC(c4ccc5c(c4)CN(C4CCC(=O)NC4=O)C5=O)C3)cc2)C1 (stereo partly drawn) [Compound 139]
Result: < 1 nM

* * *

assay_system: UniProtKB Q92831
experiment_notes: KAT2B degradation, Western Blot (Jess), NCI-H1048 cells
Type: cell-based
Set-up: degrader, Western blot (Jess)
experimental_setup: NCI-H1048 cells, KAT2B, 24 h, Western Blot, vs DMSO; read-out: KAT2B NCI-H1048 DC50
readout_name: DC50

CN1C[C@H](Nc2cnn(C)c(=O)c2Cl)C[C@H](c2ccc(C(=O)N3CC4(CC(Oc5ccc(C6CCC(=O)NC6=O)c(F)c5)C4)C3)cc2)C1 (some centres unmarked): < 1 nM
CN1C[C@H](Nc2cnn(C)c(=O)c2Cl)C[C@H](c2ccc(CN3CCN(c4cc(C5CCC(=O)NC5=O)ccn4)CC3)cc2)C1 (some centres unmarked): > 30 nM
Cc1cc(N2CCC3(CCN(C(=O)c4ccc([C@H]5C[C@@H](Nc6cnn(C)c(=O)c6Cl)CN(C)C5)cc4)CC3)CC2)ccc1C1CCC(=O)NC1=O (some centres unmarked): < 1 nM
CN1C[C@H](Nc2cnn(C)c(=O)c2Br)C[C@H](c2ccc(C(=O)N3CCC4(CC3)CCN(c3ccc5c(C6CCC(=O)NC6=O)nccc5c3)CC4)cc2)C1 (some centres unmarked): < 1 nM
Cc1ncsc1-c1ccc(CNC(=O)[C@@H]2C[C@@H](O)CN2C(=O)[C@@H](NC(=O)CN2CCN(C3CCN(C(=O)c4ccc([C@H]5C[C@@H](Nc6cnn(C)c(=O)c6Br)CN(C)C5)cc4)CC3)CC2)C(C)(C)C)cc1: > 30 nM

Query: Return value of DC50 for input CN1C[C@H](Nc2cnn(C)c(=O)c2Br)C[C@H](c2ccc(CN3CC(Oc4cccc(C5CCC(=O)NC5=O)c4)C3)cc2)C1 (some centres unmarked) , no commentary.
Result: > 30 nM

Query: Provide only the value of recorded DC50 for Cc1c(N[C@@H]2C[C@H](c3ccc(CN4CCN(c5cc(C6CCC(=O)NC6=O)c(F)cc5F)CC4)cc3)CN(C)C2)cnn(C)c1=O (some centres unmarked)
Result: > 30 nM

Query: Hello, please tell me recorded DC50 for this one: CN1C[C@H](Nc2cnn(C)c(=O)c2Cl)C[C@H](c2ccc(CN3CC(c4cccc(C5CCC(=O)NC5=O)c4)C3)cc2)C1 (some centres unmarked)
Result: > 30 nM

Query: Give reported DC50 value for `CN1C[C@H](Nc2cnn(C)c(=O)c2Cl)C[C@H](c2ccc(C(=O)N3CCC4(CC3)CCN(c3ccc(CN5CCC(=O)NC5=O)cc3)CC4)cc2)C1`
Result: > 30 nM

Query: Return DC50 for the following compound: CN1C[C@H](Nc2cnn(C)c(=O)c2Br)C[C@H](c2ccc(C(=O)N3CCN(C4CCC(N5CCC(=O)NC5=O)CC4)CC3)cc2)C1 (some centres unmarked)
Result: > 30 nM

Query: Return reported DC50. Input compound: COc1cc(N2CCC3(CCN(C(=O)c4ccc([C@H]5C[C@@H](Nc6cnn(C)c(=O)c6Br)CN(C)C5)cc4)CC3)CC2)c(F)cc1C1CCC(=O)NC1=O (some centres unmarked)
Result: > 30 nM
